Here, each record is paired with measured Plat data.
# Organism: Rattus norvegicus
# method description: Open TG-GATES - Regimen: Single
# Assay type: toxicity, organism-based, Sprague-Dawley
# Design: regimen Single, gender Male, age 6 weeks
# condition: in vivo, po, 0 mg/kg, 24 h, tissue Blood, route gavage, dose level Control
Express it in x10_4/uL; write the number only.

Take a look at these entries with their results.
- molecule: "Nc1ccc(Cc2ccc(N)cc2)cc1"
  Plat, x10_4/uL: 146.9
- molecule: "CCCCNC(=O)NS(=O)(=O)c1ccc(C)cc1 [TOLBUTAMIDE]"
  Plat, x10_4/uL: 123.6
- molecule: "CCO"
  Plat, x10_4/uL: 115.5
- molecule: "O=C(O)c1ccccc1Nc1ccccc1"
  Plat, x10_4/uL: 124.1
- molecule: "NS(=O)(=O)c1cc(C(=O)O)c(NCc2ccco2)cc1Cl [FUROSEMIDE]"
  Plat, x10_4/uL: 116.4

// Plat lookup, key: CC(S)C(=O)NCC(=O)O (stereo not drawn)
115.1

// Plat lookup, key: CN(C)CCCN1c2ccccc2Sc2ccc(Cl)cc21
133.9

// Plat lookup, key: CN(C/C=C/C#CC(C)(C)C)Cc1cccc2ccccc12
132.1

* * *

# Organism: Rattus norvegicus
# method description: Open TG-GATES - Regimen: Single
# Type: toxicity, organism-based, Sprague-Dawley
# Design: regimen Single, gender Male, age 6 weeks
# condition: in vivo, po, 0 mg/kg, 3 h, tissue Liver, route gavage, dose level Control
Here, each record is paired with measured LIVER data.
Express it in g; write the number only.

- compound: "Nc1ccc(Cc2ccc(N)cc2)cc1"
  unit name: "g"
  LIVER: 9.5
- compound: "COc1ccc([C@@H]2Sc3ccccc3N(CCN(C)C)C(=O)[C@@H]2OC(C)=O)cc1 [DILTIAZEM]"
  unit name: "g"
  LIVER: 8.3
- compound: "CC(S)C(=O)NCC(=O)O (stereo unspecified) [TIOPRONIN]"
  unit name: "g"
  LIVER: 9.1
- compound: "CN(C)CCCN1c2ccccc2Sc2ccc(Cl)cc21 [CHLORPROMAZINE]"
  unit name: "g"
  LIVER: 10
- compound: "CN(C/C=C/C#CC(C)(C)C)Cc1cccc2ccccc12 [TERBINAFINE]"
  unit name: "g"
  LIVER: 10.9

// LIVER lookup, key: CCCCNC(=O)NS(=O)(=O)c1ccc(C)cc1 [TOLBUTAMIDE]
9.1

// LIVER lookup, key: O=C(O)c1ccccc1Nc1ccccc1 [FENAMIC ACID]
8.8

// LIVER lookup, key: CC(=O)[C@@]1(O)CC[C@H]2[C@@H]3C=C(Cl)C4=CC(=O)CC[C@]4(C)[C@H]3CC[C@@]21C [CHLORMADINONE]
10

* * *

# Organism: Rattus norvegicus
# method description: Open TG-GATES - Regimen: Daily Repeat
# Assay type: toxicity, organism-based, Sprague-Dawley
# Parameters: regimen Daily Repeat, gender Male, age 6 weeks
# condition: in vivo, po, 100 mg/kg, […], tissue Plasma, route gavage, dose level Low, time 7 day
Here, each record is paired with measured GLC data.
Express it in mg/dL; write the number only.

- compound: "CCCCNC(=O)NS(=O)(=O)c1ccc(C)cc1 [TOLBUTAMIDE]"
  val: 197.4
- compound: "CC(=O)[C@@]1(O)CC[C@H]2[C@@H]3C=C(Cl)C4=CC(=O)CC[C@]4(C)[C@H]3CC[C@@]21C"
  val: 185.4
- compound: "O=C(O)c1ccccc1Nc1ccccc1"
  val: 182

// GLC lookup, key: CC(S)C(=O)NCC(=O)O (centres undefined)
189.8
